Test: Pharmacokinetics in mice
Type: in vivo
Details: mouse, plasma; male CD-1 mice; 1 mg/kg, iv
Listed here are compounds together with their documented log10 half-life.
A value of 2 here means half-life of 100 in min, since values are log10.

Illustrative cases are given below, each with its answer.
{"columns": ["COMPOUND", "log10 half-life"],
 "data": [
  ["COc1ccc2c(ncc3nc(C)n(Cc4cc(F)c(S(N)(=O)=O)cc4F)c32)n1", 2.19],
  ["COc1ccc2c(n1)nc(C)c1nc(C)n(Cc3ccc(S(N)(=O)=O)cn3)c12", 1.51]
]}

Problem: State its log10 half-life for this compound: COc1ccc2c(ncc3nc(C)n(Cc4ccc(S(N)(=O)=O)c(F)c4)c32)n1
Solution: 1.65

Problem: State its log10 half-life for this compound: COc1ccc2c(ncc3ncn(Cc4ccc(S(N)(=O)=O)nc4)c32)n1
Solution: 1.86

Problem: State its log10 half-life for this compound: COc1ccc2c(ncc3nc(C4CC4)n(Cc4ccc(S(N)(=O)=O)cn4)c32)n1
Solution: 1.92

Problem: State its log10 half-life for this compound: COc1ccc2c(ncc3nc(CC#N)n(Cc4ccc(S(N)(=O)=O)c(F)c4)c32)n1
Solution: 1.71

Problem: State its log10 half-life for this compound: COc1ccc2c(ncc3ncn(Cc4ccc(S(N)(=O)=O)cc4)c32)n1
Solution: 1.30

Problem: State its log10 half-life for this compound: COc1ccc2c(ncc3c2n(Cc2c(F)cc(S(N)(=O)=O)cc2F)c(=O)n3C)n1
Solution: 2.37

Problem: State its log10 half-life for this compound: COc1ccc2c(ncc3nnn(Cc4ccc(S(N)(=O)=O)cn4)c32)n1
Solution: 1.92

Problem: State its log10 half-life for this compound: COc1ccc2c(ncc3cnn(Cc4ccc(S(N)(=O)=O)c(F)c4)c32)n1 [Compound 122a]
Solution: 1.30

Problem: State its log10 half-life for this compound: COc1ccc2c(ncc3ncn(CC4CN(S(N)(=O)=O)C4)c32)n1
Solution: 1.32

Problem: State its log10 half-life for this compound: COc1ccc2c(ncc3ncn(Cc4ccc(S(N)(=O)=O)cc4F)c32)n1
Solution: 2.47
